# Species on record: Homo sapiens
# procedure.summary: Liver toxicity in human assessed as induction of drug-induced liver injury by measuring verified drug-induced liver injury concern status
recorded.endpoint: DILI_Concern

[[record]]
compound = "CO/N=C1\\CN(c2nc3c(cc2F)c(=O)c(C(=O)O)cn3C2CC2)CC1CN (centres undefined) [GEMIFLOXACIN]"
observed_measurement = "Less-Dili-Concern"

[[record]]
compound = "CC(=O)O[C@H]1C(=O)[C@@]2(C)[C@H]([C@H](OC(=O)c3ccccc3)[C@]3(O)C[C@H](OC(=O)[C@H](O)[C@@H](NC(=O)c4ccccc4)c4ccccc4)C(C)=C1C3(C)C)[C@]1(OC(C)=O)CO[C@@H]1C[C@@H]2O [PACLITAXEL]"
observed_measurement = "Less-Dili-Concern"

[[record]]
compound = "CCN(CC)CCNC(=O)c1ccc(N)cc1 [PROCAINAMIDE]"
observed_measurement = "Less-Dili-Concern"


###

# Species: Homo sapiens
# procedure.summary: Liver toxicity in human assessed as induction of drug-induced liver injury by measuring severity class index
recorded.endpoint: DILI_severity_class

[[record]]
compound = "CC12CC3CC(C)(C1)CC(N)(C3)C2 [MEMANTINE]"
observed_measurement = 7

[[record]]
compound = "OC(CNCC(O)C1CCc2cc(F)ccc2O1)C1CCc2cc(F)ccc2O1 (stereo not given)"
observed_measurement = 3

[[record]]
compound = "CCCN1C[C@H](CSC)C[C@@H]2c3cccc4[nH]cc(c34)C[C@H]21 [PERGOLIDE]"
observed_measurement = 3

[[record]]
compound = "Nc1nc(=O)[nH]cc1F"
observed_measurement = 3

[[record]]
compound = "O=S([O-])([O-])=S.[Na+].[Na+]"
observed_measurement = 0


###

# Species: Homo sapiens
# procedure.summary: Liver toxicity in human assessed as induction of drug-induced liver injury by measuring severity class index
recorded.endpoint: DILI_severity_class

[[record]]
compound = "CN1CC(=O)N2[C@H](c3ccc4c(c3)OCO4)c3[nH]c4ccccc4c3C[C@@H]2C1=O"
observed_measurement = 3

[[record]]
compound = "CC(S)C(=O)NCC(=O)O (stereo not given)"
observed_measurement = 3

[[record]]
compound = "CCCc1nc(C)c2c(=O)[nH]c(-c3cc(S(=O)(=O)N4CCN(CC)CC4)ccc3OCC)nn12"
observed_measurement = 3

[[record]]
compound = "CCCCCNC(=N)N/N=C/c1c[nH]c2ccc(OC)cc12"
observed_measurement = 3

[[record]]
compound = "Nc1ccc(S(=O)(=O)Nc2ncccn2)cc1"
observed_measurement = 3

[[record]]
compound = "CC(C)C[C@H](NC(=O)[C@H](Cc1c[nH]c2ccccc12)NC(=O)[C@H](Cc1ccc(O)cc1)NC(=O)[C@H](CO)NC(=O)[C@H](Cc1c[nH]c2ccccc12)NC(=O)[C@H](Cc1c[nH]cn1)NC(=O)[C@@H]1CCC(=O)N1)C(=O)N[C@@H](CCCNC(=N)N)C(=O)N1CCC[C@H]1C(=O)NCC(N)=O.O=C(O)c1cc2ccccc2c(Cc2c(O)c(C(=O)O)cc3ccccc23)c1O"
observed_measurement = 3

[[record]]
compound = "CCCCCCCCCC(=O)OC1(c2ccc(Cl)cc2)CCN(CCCC(=O)c2ccc(F)cc2)CC1 [HALOPERIDOL DECANOATE]"
observed_measurement = 3

[[record]]
compound = "CCC1(C)CC(=O)NC1=O (stereo not given) [ETHOSUXIMIDE]"
observed_measurement = 3

[[record]]
compound = "O=C1Cc2cc(CCN3CCN(c4nsc5ccccc45)CC3)c(Cl)cc2N1"
observed_measurement = 3

[[record]]
compound = "COC(=O)C(c1ccccc1)C1CCCCN1 (stereo not given) [METHYLPHENIDATE]"
observed_measurement = 3


Reference for the values: ChEMBL document CHEMBL4028802
